These measurements were taken from PubChem BioAssay (NCI).

# Tested on: K-562 leukemia
# procedure text: NCI-60 one-dose screen, 48 h
# measurement parameters: 10 µM unless noted
The panel holds about 83,000 compounds, 20% with a hit somewhere; the sample as a whole holds those more often. Calls of active or inactive are those of the source. How the source made its calls: active means growth percent below 10; inactive means the rest.
Outcomes: TRUE for active, FALSE for inactive

• NNCCc1ccc(NC(=O)CCCc2ccc(/C=C/C(=O)NO)cc2)cc1 = TRUE
• C=C(C)C(=O)Nc1ccc(NC(C)C)cc1 = FALSE
• C=CC(=O)Nc1cccc(-c2nc(SC)nc(NCCc3ccc(OC)c(OC)c3)c2C#N)c1 = FALSE
• Cc1ccc(/C=C2\SC(=S)N(CC(=O)NCCCN3CCOCC3)C2=O)cc1 = FALSE
• CC1=C[C@H]2c3c(c(O)c(O)c4oc(-c5ccccc5)cc(=O)c34)[C@H](c3cc(O)c(O)c4oc(-c5ccccc5)cc(=O)c34)[C@H]2C(C)(C)C1 = TRUE

* * *

# Test system: LOX IMVI melanoma
# procedure text: NCI-60 one-dose screen, 48 h
# measurement parameters: 10 µM unless noted
This is part of a sample that, as a whole, favours compounds with a hit. Of some 83,000 tested, about 20% had one in any assay. The source made the active and inactive calls. Rule for the calls: active = growth percent below 10; inactive = the rest.
Outcomes: active, inactive

* COC(=O)[C@]12CCC(C)(C)C[C@H]1[C@H]1C(=O)C[C@@H]3[C@@]4(C)c5c([nH]c6ccccc6c5=O)C(C)(C)[C@@H]4CC[C@@]3(C)[C@]1(C)CC2 | inactive
* O=c1cc(CSc2nnc(SCc3cc(=O)oc4c3ccc3ccccc34)o2)c2ccc3ccccc3c2o1 | inactive
* FC(F)(F)Oc1ccc2nc3nc4ccc[nH]c4cc3c2c1 | inactive
* NC(=NCCCOc1ccc(Cl)cc1)Nc1ccc(Cl)cc1 | inactive
* O=S(=O)(Nc1ccc(OC(F)F)cc1)c1ccc(-c2cnc(C3CC3)o2)cc1 | inactive
* O=C(N/N=C/c1c[nH]c2ccccc12)c1cc(-c2ccccc2)on1 | inactive
* CCCOc1ccc2nc(NC(=O)OC)[nH]c2c1 | inactive
* Cc1cc(NS(=O)(=O)c2ccc(-c3cnc(C4CC4)o3)cc2)ccc1Cl | inactive
* O=C(N/N=C/c1ccccc1O)c1ccccc1Nc1ccnc(C(F)(F)F)c1 | active
* CN(Cc1cc(Cl)cc(Cl)c1O)Cc1cc(Cl)cc(Cl)c1O | inactive
* CCOC(=O)c1cc(C(=O)c2ccc(O)c(O)c2)n2ccc(-c3ccn4c(C(=O)c5ccc(O)c(O)c5)cc(C(=O)OCC)c4c3)cc12 | inactive
* N#Cc1c(-c2ccc(Cl)cc2)nc(N=Nc2c(O)[nH]c3ccc(Cl)cc23)nc1N1CCOCC1 | inactive
* CCOc1cc2ncc(C#N)c(Nc3ccc(OCc4cccc(F)c4)c(Cl)c3)c2cc1NC(=O)CC1CCSS1 (stereo not given) | active
* O=C1/C(=C/N2N=C(c3ccc4ccccc4c3)CC2c2ccccc2O)SC(=S)N1c1cccnc1 (stereo not given) | inactive
* Cn1cc(-c2nonc2-c2c[nH]c3ccc(F)cc23)c2cccnc21 | inactive
* C=CC(=O)Nc1cccc(-c2nc(SC)nc(Nc3ccccc3OC)c2C#N)c1 | inactive
* Cc1cc(C)nc(SC2=C(Nc3cc(Cl)ccc3O)C(=O)N(Cc3ccccc3)C2=O)n1 | inactive
* Clc1ccc2nc3nc4ccc[nH]c4cc3c2c1 | inactive
* Cn1c(O)c(N=NC(=O)c2cc(-c3ccccc3)on2)c2ccccc21 | inactive
* O=C1c2ccccc2C(=O)c2c1ccc1[nH]c(-c3cccs3)nc21 | inactive
* COc1nc2c(c(=O)n1C)CN(Cc1ccccc1)C=N2 | inactive
* C=C(C)C(=O)Nc1ccc(NC(C)C)cc1 | inactive
* COc1cc(-c2nc3ccccc3[nH]2)ccc1OCc1nnc(-c2ccc(CC(C)C)cc2)o1 | inactive
* COc1cc(/C=C/c2cc(/C=C/c3ccc(O)c(OC)c3)n(-c3c(C)cccc3C)c(=O)n2)ccc1O | active
* COc1ccc(C(=O)COc2ccc(/C=C3\COc4ccc(OC)cc4C3=O)cc2)cc1 | inactive
* CCOc1ccc(C(C)=O)cc1NC(=O)c1cccc(-c2nnn(CC)n2)c1 | inactive
* COc1ccc(-n2nc(C)c3c(Nc4ccc(NC(=O)Nc5c(Cl)cccc5Cl)cc4)ncnc32)cc1 | inactive
* CSc1ccc(-c2n[nH]nc2-c2cc3ccccc3s2)cc1 | inactive
* Cc1nn(-c2ccc(F)cc2)c2ncnc(Oc3ccc(NC(=O)Nc4ccc(Cl)c(C(F)(F)F)c4)cc3)c12 | inactive
* Cc1ccc(OC(=O)c2ccc(Cl)cc2)cc1 | inactive
* Cn1ccnc1C(=O)/C=C/c1ccc(CC(=O)Nc2ccccc2)cc1 | active
* Cn1cc(-c2nonc2-c2cn(C)c3ccc(F)cc23)c2ccccc21 | inactive
* O=C(Cc1ccc(/C=C/C(=O)c2ncc[nH]2)cc1)Nc1ccc(F)cc1 | active
* COc1ccc(S(=O)(=O)N2CC3(COC3)C2)cc1NC(=O)c1[nH]c(C)c2c1CCCCC2=O | inactive
* CCn1c(O)c(/C=N/NC(=O)C(C)c2ccc(CC(C)C)cc2)sc1=S (stereo not given) | inactive
* Cc1cc2nc3[nH]c4ccccc4c3nc2cc1C | inactive
* Oc1cccc2ccc(N/N=C/c3cc(CN4CCOCC4)c(O)c4ncccc34)nc12 | active
* COc1cc2nc(N3CCCC3)nc(NCC3CCCCC3)c2cc1OC | active
* O=C(/C=C/c1cccc(Cl)c1)c1ccc(O)c(CN2CCN(c3cc4c(cc3F)c(=O)c(C(=O)O)cn4C3CC3)CC2)c1 | inactive
* Cc1ccccc1COc1ccc(-c2ccnn2-c2ccc(Cl)cc2)cc1 | inactive

* * *

# System: HS 578T breast
# procedure text: NCI-60 one-dose screen, 48 h
# measurement parameters: 10 µM unless noted
Compounds without any hit were thinned out: in the full panel of roughly 83,000, 20% have a hit. The source made the active and inactive calls. How the source made its calls: active means growth percent below 10; inactive means the rest.
Outcomes: active, inactive

• NC(=NCCCOc1ccc(Cl)cc1)Nc1ccc(Cl)cc1 = inactive
• COc1ccc(C(=O)c2sc3nc(C)cc(C)c3c2N)cc1OC = inactive
• COc1ccc(C2Nc3c(c(C(C)(C)C)nn3-c3ccccc3)C(=O)CS2)cc1 (stereo not given) = inactive
• COc1cc2c(cc1-c1c(C)noc1C)ncc1nc(-c3ccccn3)n([C@H](C)COC(F)F)c12 = active
• O=[N+]([O-])c1ccc(Nc2nc(NCCN3CCOCC3)ncc2[N+](=O)[O-])cc1 = inactive

* * *

Some compounds, each annotated with its measured growth.
# Tested on: ACHN renal
# procedure text: NCI-60 one-dose screen, 48 h (100 = growth as untreated, 0 = no growth, -100 = all killed)
# measurement parameters: 10 µM unless noted
The panel holds about 83,000 compounds, 20% with a hit somewhere; the sample as a whole holds those more often.
value kind: growth (%)

- CCCCn1c(-c2ccc(C(=O)O/N=C(\N)c3ccc4ccccc4c3)cc2)nc(-c2ccccc2)c1-c1ccccc1: -72.7
- CC(=O)Nc1ccc(S(=O)(=O)Nc2cccc(-c3nc(-c4ccc(NC(=O)c5cccnc5)cc4Cl)no3)c2)cc1: 81.2
- CN(C)S(=O)(=O)c1cccc(-c2nc3sc4c(c3c(=O)[nH]2)CCCC4)c1: 96.5
- CON1C(=O)CC[C@]2(C)[C@H]3CC[C@@H]4C([C@@]5(C)CCC(=O)O5)CC[C@@]4(C)[C@]3(C)CC[C@H]2C1(C)C (some centres undefined): 96.6

* * *

# System: CCRF-CEM leukemia
# procedure text: NCI-60 one-dose screen, 48 h (100 = growth as untreated, 0 = no growth, -100 = all killed)
# measurement parameters: 10 µM unless noted
# Procedure: Growth inhibition of the CCRF-CEM human tumor cell line is measured as a screen for anti-cancer activity. Cells are grown in 96 well plates and exposed to the test compound for 48 hours. Compounds are tested at a single concentration, which is 10^-5 M for most compounds. The reported endpoint is percent growth (GI% or GIPRCNT), where numbers from 0 - 100% represent growth inhibition, and numbers from -100% - 0 represent cell death. For example, a value of 40 represents 60% growth inhibition. […]
Compounds without any hit were thinned out: in the full panel of roughly 83,000, 20% have a hit. Active and inactive are the calls of the source. How the source made its calls: active means growth percent below 10; inactive means the rest.
Some compounds, each annotated with its measured growth.
value kind: growth

* COc1cc(-c2nc3ccccc3[nH]2)ccc1OCC(=O)N=Nc1c(O)[nH]c2ccc(Cl)cc12 | -46.7% (active)
* O=C(N/N=C/c1c[nH]c2ccccc12)c1cc(-c2ccccc2)on1 | 46.1% (inactive)
* COc1ccc(/C=C(\C#N)C(=O)Nc2cccc(Nc3nc(SC)nc(-c4cccc([N+](=O)[O-])c4)c3C#N)c2)cc1OC | 87.7% (inactive)
* COc1cc2c(cc1-c1c(C)noc1C)ncc1nc(C3CCC(F)(F)CC3)n([C@H](C)COC(F)F)c12 | 50.3% (inactive)
* COc1ccc(/C=C\c2cc(OC)c(OC)c(OC)c2)cc1OCC(=O)Nc1ccc2nc(C)sc2c1 | 15.5% (inactive)
* CCOc1ccc(C(C)=O)cc1NC(=O)c1cccc(-c2nnn(CC)n2)c1 | 11.9% (inactive)
* Cc1nn(-c2cc(=O)[nH]c3ccccc23)c(N)c1C#N | 102% (inactive)
* CN1CCN=C1c1ccc(NC(=O)c2ccc(C(=O)Nc3ccc(C4=NCCN4C)cc3)cc2)cc1 | 110% (inactive)
* COc1ccc(C(=O)c2sc3nc(C)cc(C)c3c2N)cc1OC | 98.2% (inactive)
* CCOC(=O)c1cc(C(=O)c2ccc(O)c(O)c2)n2ccc(-c3ccn4c(C(=O)c5ccc(O)c(O)c5)cc(C(=O)OCC)c4c3)cc12 | 84.5% (inactive)
* O=c1cc(CSc2nnc(SCc3cc(=O)oc4c3ccc3ccccc34)o2)c2ccc3ccccc3c2o1 | 105% (inactive)
* N=C(N)c1ccc(-c2ccc(-c3ccc4ccccc4c3)s2)s1 | -27.8% (active)
* C=CC(=O)Nc1cccc(-c2nc(SC)nc(Nc3ccccc3OC)c2C#N)c1 | 40.8% (inactive)
* COc1cccc(-c2nc3sccn3c2-c2ccnc(NCCCNS(=O)(=O)c3c(Cl)cccc3Cl)c2)c1 | 31.9% (inactive)
* O=C1c2ccccc2C(=O)c2c1ccc1[nH]c(-c3cccs3)nc21 | 88.4% (inactive)
* COc1cc(-c2nn(-c3ccc(C)cc3)cc2C(=O)O)ccc1O | 97.5% (inactive)
* CCN(CC)c1ccc2c(c1)Oc1nc(N)c(C#N)c(N)c1C2Sc1ccc(SC)cc1 (centres undefined) | -15.5% (active)
* COc1ccc(-c2cc(C(=O)N=Nc3c(O)[nH]c4ccc(Br)cc34)no2)cc1 | 102% (inactive)
* c1ccc(Cn2cc(-c3nc4ccccc4s3)c3cccnc32)cc1 | 112% (inactive)
